# target of assay: Cannabinoid receptor 1 (Homo sapiens, UniProt P21554)
# Sequence (P21554 whole entry): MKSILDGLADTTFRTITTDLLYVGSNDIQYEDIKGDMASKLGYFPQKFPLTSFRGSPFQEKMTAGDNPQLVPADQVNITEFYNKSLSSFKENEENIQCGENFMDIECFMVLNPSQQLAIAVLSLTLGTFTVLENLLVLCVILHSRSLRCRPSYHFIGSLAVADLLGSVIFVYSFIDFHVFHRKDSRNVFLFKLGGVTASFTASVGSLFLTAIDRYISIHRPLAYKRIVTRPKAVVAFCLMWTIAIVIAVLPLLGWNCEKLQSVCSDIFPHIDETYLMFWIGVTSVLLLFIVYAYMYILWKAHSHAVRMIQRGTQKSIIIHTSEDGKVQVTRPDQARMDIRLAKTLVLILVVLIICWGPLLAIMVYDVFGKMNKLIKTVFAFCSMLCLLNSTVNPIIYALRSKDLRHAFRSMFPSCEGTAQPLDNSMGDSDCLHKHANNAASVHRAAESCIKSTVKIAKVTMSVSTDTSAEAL
# assay text: Displacement of [3H][…] from human recombinant cannabinoid CB1 receptor expressed in CHO cells
pIC50: −log10 of the molar value.
value type: pIC50

Known pIC50 results, listed for orientation:
In [3]: df
Out[3]:
                                   compound                           target_of_assay  experimental_value
0  CC(NC(=O)C(C)(C)Oc1ccc(C(F)(F)F)cn1)C(C)(Cc1ccc(Cl)cc1)c1cccc(Br)c1 (stereo in doubt; 5b)  Cannabinoid receptor 1 (Homo sapiens, UniProt P21554)                6.59
1  CC(C)(Oc1ccc(C(F)(F)F)cn1)C(=O)N1CC(Cc2ccc(Cl)cc2)(c2ccccc2)C1  Cannabinoid receptor 1 (Homo sapiens, UniProt P21554)                5.89
2  CC(C)(Oc1ccc(C(F)(F)F)cn1)C(=O)N1CCC(Cc2ccc(Cl)cc2)(c2ccccc2)C1 (racemic)  Cannabinoid receptor 1 (Homo sapiens, UniProt P21554)                6.09

P. CC(NC(=O)C(C)(C)Oc1ccc(C(F)(F)F)cn1)C(C)(Cc1ccc(Cl)cc1)c1cccc(Br)c1 (racemic)
Q. CC(C)(Oc1ccc(C(F)(F)F)cn1)C(=O)NCC(C)(Cc1ccc(Cl)cc1)c1cccc(Br)c1 (racemic)
R. CC(C)(Oc1ccc(C(F)(F)F)cn1)C(=O)N1CCCC(Cc2ccc(Cl)cc2)(c2ccccc2)C1 (racemic)
S. C[C@H](NC(=O)C(C)(C)Oc1ccc(C(F)(F)F)cn1)[C@@H](Cc1ccc(Cl)cc1)c1cccc(Br)c1 (racemic)
Highest pIC50 first, then in falling order down to the smallest. Answer by listing the labels in the order asked for.
S, P, Q, R
